# Percent Effect per entry
measured.on: Arginase-2, mitochondrial (Homo sapiens) (UniProt P78540)
Sequence (P78540 whole entry): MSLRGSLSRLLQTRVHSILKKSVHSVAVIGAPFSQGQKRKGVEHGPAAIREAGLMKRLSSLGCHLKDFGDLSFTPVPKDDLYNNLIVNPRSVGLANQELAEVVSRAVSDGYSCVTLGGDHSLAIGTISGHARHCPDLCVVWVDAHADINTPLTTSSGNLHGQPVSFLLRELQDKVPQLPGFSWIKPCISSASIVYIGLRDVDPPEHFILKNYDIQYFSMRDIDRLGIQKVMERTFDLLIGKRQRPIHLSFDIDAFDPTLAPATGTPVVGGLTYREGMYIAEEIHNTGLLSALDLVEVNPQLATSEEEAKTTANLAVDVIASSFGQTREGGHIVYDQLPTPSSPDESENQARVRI
assay.comment: in vitro enzyme assay to detect the production of urea directly proportional to the activity of Arginase II; further: in the data most compounds retested in dose-response had high values
Format: functional
Design: scale not given: direction of the effect not stated beside the values
measurement.conditions: 33.3 µM
Give the value in % but do not write % after it.

Answered cases to consult:
O=C1N(Cc2cccc(F)c2F)CCCC1(O)CNC1CCCC1 (centres undefined) | 7.29
Cc1cc(NC(=O)CN2CCc3cnc(C)nc3C2)on1 | 1.8
N#Cc1ccc(CNC(=O)NC2CCN(CC(F)F)CC2)cc1 | -2.23
COC1CCN(C(=O)c2c(Cl)c3ccccc3n2C)CC1 | 5.21
CCc1nc(C2CCCN(C(=O)c3cccc4c3ccn4C)C2)no1 (centres undefined) | -6.47
COCCn1nc(C(=O)N(C)Cc2cnn(C)c2)ccc1=O | -8.28
COCC1CN(Cc2ccc(C)o2)Cc2ncn(CC3CC3)c21 (centres undefined) | -6.9
CC(C)(C)c1ncc(C(=O)NCCNC(=O)c2ccccc2)s1 | 0.36
O=c1nc(SCc2ccncc2)c2c(n1CCO)CCCC2 | 19.6
CC(=O)N1CCCN(c2nccc(-c3cn(C)nc3C)n2)CC1 | 0

query: Which Percent Effect value is on record for COc1cccc(CN(C)C(=O)CN2CC(n3nc(C)cc3C)C2)c1 ?
result: 1.18

query: Field request: Percent Effect | item: CC(C)CN1Cc2c(C(=O)N(C)C)ncn2-c2ccccc2S1(=O)=O
result: 0.319

query: Param item = CCc1nc(CN(C(C)=O)C2CCN(CCc3cnn(C)c3)C2)no1 (centres undefined) ; retrieve measured Percent Effect.
result: 3.04

query: What Percent Effect value was documented for this compound, Fc1ccc(CN2CC[C@H]3O[C@@H](COCC4CCOCC4)CC[C@H]32)cc1 ?
result: -0.233

query: # query: Percent Effect of entry COc1cc(C)c(C(C)NC(=O)Nc2nnc(C)s2)cc1OC (centres undefined)
result: 1.24

query: // returns reported Percent Effect for input COc1ncccc1CN1CCn2c(Cn3cncn3)cnc2C1
result: 2.1

query: Tell me the measured Percent Effect of CCN1CCN(S(=O)(=O)c2ncn(C)c2Cl)CC1 , please.
result: 1.77

query: Recorded Percent Effect for COCC1CN(C(=O)CNC(C)=O)Cc2ncnn2C1 (centres undefined) , please?
result: 2.76

query: Given Cc1ccc(CNC(=O)CN2CCN(CC(O)C3CC3)CC2)cc1 (centres undefined) , state its recorded Percent Effect.
result: 1.94

query: Fill in: Percent Effect of CCn1c(N)nc2cc(C(=O)NCc3ccccc3Cl)cnc21 is ___
result: 5.91

query: Any idea what Percent Effect was measured for c1cn(Cc2nnc(C3CCN(c4nccs4)CC3)n2C2CC2)cn1 ?
result: 13

query: Quick check: Percent Effect of CN(C)c1ccc(CCCNC(=O)Nc2ccc(C#N)cc2)cc1 ?
result: 11.4

query: Returns the measured Percent Effect for the input compound. Input: Cc1cnc(N)c(C(=O)C2CCN(C(=O)c3ccccc3F)CC2)c1
result: -2.56

query: Given the compound CCN1C[C@H]2CCN(C(C)=O)CC[C@H]2S1(=O)=O , what is its reported Percent Effect?
result: -5.81

---

measured.on: AMP-activated protein kinase, AMPK (Homo sapiens) (UniProt P54646+O43741+P54619+Q9UGJ0+Q9Y478+Q13131+Q9UGI9)
assay.comment: AMP-dependent Kinase enzyme assay. An in vitro enzyme assay that detects ADP turnover that is directly proportional to AMPK activity. This uses naive AMPK that is activated during the assay with MK-8722
Assay type: functional
Parameters: scale not given: direction of the effect not stated beside the values
measurement.conditions: 30 µM
observable: Percent Effect (%)
A number alone suffices; assume %.

Consider the reported Percent Effect for these compounds:
Cn1cnc2c1CCN(Cc1nc(-c3ccsc3)no1)C2 | -7.09
CS(=O)(=O)N[C@@H]1CCO[C@]2(CCN(C(=O)c3cnccn3)C2)C1 | 1.74
Cc1cnn(CC2CCCN2C(=O)c2ccc3cc[nH]c3c2)c1 (stereo unspecified) | 3.59
O=C(c1cc[nH]n1)N1CCCC1C1CCN(Cc2ccccc2)CC1 (stereo unspecified) | 10.9
Cc1cc(-c2cnc(N3CCN(C)CC3)nc2-c2ccc(C)s2)on1 | 10.6

Now look at this entry.
query: Need Percent Effect of O=C(NCc1ccc(OCC2CC2)nc1)c1c(F)cccc1F , thanks.
result: 4.21
